Listed below: Subtraction values for each entry.
- assaySystem: T1, full length human GLP-1R with N-terminal FLAG tag and C-terminal GFP tag, on CHO cells (human, UniProt P43220 24-463)
- T1 construct: whole, on cells; the cell line itself is tied to UniProt P43220; also called FLAG-GLP-1R-GFP; CHO-GLP-1R
- assayMethodText: flow cytometry, expressing minus parent CHO cells
Please reply with the number alone, leaving off any unit.

Guide cases for Subtraction, answers given:
binder | measurementName | reportedResult
GLP1R-222-090 (antibody, V domains shown, IgG) VH: QVQLVESGGGVVQPGRSLRLSCAASGFSFSDYGIHWVRQAPGKGLEWVALISYEGSNKYYADSVKGRFTISRDNSKNTLYLQMNSLRAEDTAVYYCAKHMSMQEGAVTGEKQAAKEFIAWLVKGRVRADLVGDAFDVWGQGTLVTVSS VL: QSVLTQPPSVSAAPGQKVTISCSGSSSNIADNYVSWYQQLPGTAPKLLIYDNNKRASGIPDRFSGSKSGTSATLGITGLQTGDEADYYCATWDNRLSAGVFGGGTKLTVL | Subtraction | 227000
GLP1R-222-012 (antibody, V domains shown, IgG) VH: QVQLVESGGGVVQPGRSLRLSCAASGFTFNNYGMHWVRQAPGKGLEWVAVISDEGSNKYYADSVKGRFTISRDNSKNTLYLQMNSLRAEDTAVYYCAKHMSMQEGAVTGVGQAAKEFIAWLVKGRVRADLVGDAFDVWGQGTLVTVSS VL: QSVLTQPPSVSAAPGQKVTISCSGSSSNIGNNDVSWYQQLPGTAPKLLIYDDDKRPSGIPDRFSGSKSGTSATLGITGLQTGDEADYYCGTWDTSLSVGEFGGGTKLTVL | Subtraction | 225000

Enquiry: # input binder: GLP1R-222-023 (antibody, V domains shown, IgG) VH: QVQLVESGGGVVQPGRSLRLSCAASGFSFSDYGMHWVRQAPGKGLEWVAFISYDANNKYYADSVKGRFTISRDNSKNTLYLQMNSLRAEDTAVYYCAKHMSMQEGAVTGEWQAAKEFIAWLVKGRVRADLVGDAFDVWGQGTLVTVSS VL: QSVLTQPPSVSAAPGQKVTISCSGSSSNIGNNDVSWYQQLPGTAPKLLIYENTKRPSGIPDRFSGSKSGTSATLGITGLQTGDEADYYCGTWDAGLSTGVFGGGTKLTVL ; wanted: its Subtraction
Return: 241000
